assay.explanation: yeast display, Sf9 membrane polyspecificity reagent, FACS + sequencing; frameworks hold sequencing errors
readout.kind: polyreactivity (PSR sort gate)

Reference set (4 entries):
1. QVQLVESGGGLVQAGGSLRLICAASGSTFGTYAMGWYRQAPGKERELVAAISWSGGSTYYADSVKGRFTISRDNAKNTVYLQMNSLQPEDTAVYWGQGTQVTVSS
low polyreactivity
2. QVQLVESGGGLVQAGGSLRLSCAASGSIFRRNTMGWYRQAPGKERELVAAITFTGGRTYYADSVKGRFTISRDYAKNTVYLQMNSLKPEDTAVYYCNRVTAYYPTKFDYWGQGTQVNVSS
high polyreactivity
3. QVQLVESGGGLVQAGGSLRLSCAASGIIFDYYPMGWYRQAPGKERELVAGITRSGGRTYYADSVKGRFTISRDNAKNTVYLQMNSLKPEDTAVYYCAAQRGRRRWGGYWGQGTQVTVSS
high polyreactivity
4. QVQLVESGGGLVQAGGSLRLSCAASGRTFYVYAMGWYRQAPGNERELVATISRSGGGTYYADSVKGRFTISRDNAKNTVYLQMNSLTPEDTAVYYCAAKPYRRDYGYWGQGTQVTVSS
high polyreactivity

Next up:
For the sequence `QVQLVESGGGLVQAGGSLRLSCAPSGSTFLDNAMGLYRQAPGKESELVAAISRGGSTNYADSVKWLFTSSRDNAKNTVYLQMNSLKPEDTAVYYCAARVNYASRYWYYIIRGTIDYYWGQGTQVTVSS` , report polyreactivity (PSR sort gate).
low polyreactivity

Cited source for all entries: the nanobody polyreactivity screen of Harvey et al. (2022)
